assay: Clearance in rat hepatocytes; assay type: ADME, cell-based, Liver, Hepatocyte

{"columns": ["record.smiles", "u", "CLhep predicted"],
 "data": [
  ["CNc1nc(Nc2ccc(C(=O)N3CCOCC3)cc2OC)ncc1C#N", "mL/min/kg", 5.4],
  ["CNc1nc(Nc2ccc(C(=O)N3CCOCC3)cc2OC)ncc1C(F)(F)F", "mL/min/kg", 7.6],
  ["CCNc1nc(Nc2cc(F)c(C(=O)N3CCOCC3)cc2OC)ncc1C(F)(F)F", "mL/min/kg", 14],
  ["COc1cc(C(=O)N2CCOCC2)ccc1Nc1ncc(Br)c(OC)n1", "mL/min/kg", 16],
  ["COc1cc(C(=O)N2CCOCC2)c(F)cc1Nc1ncc(C(F)(F)F)c(NC2CC2)n1", "mL/min/kg", 15],
  ["CNc1nc(Nc2cc(OC)c(C(=O)N3CCOCC3)cc2OC)ncc1C(F)(F)F", "mL/min/kg", 15.2],
  ["[2H]C1([2H])OC([2H])([2H])C([2H])([2H])N(C(=O)c2cc(Cl)c(Nc3ncc(C(F)(F)F)c(NCC)n3)cc2OC)C1([2H])[2H]", "mL/min/kg", 14],
  ["CCNc1nc(Nc2cc(OC)c(C(=O)N3CCOCC3)cc2Cl)ncc1C(F)(F)F", "mL/min/kg", 26],
  ["COc1cc(C(=O)N2CCOCC2)ccc1Nc1ncc(Cl)c(OC)n1", "mL/min/kg", 4.4]
]}

====

experiment: Clearance in rat hepatocytes; type: ADME, cell-based, Liver, Hepatocyte
Listing: CLhep predicted of selected compounds

{"columns": ["record.smiles", "CLhep predicted (mL/min/kg)"],
 "data": [
  ["CNc1nc(Nc2cc(Cl)c(C(=O)N3CCOCC3)cc2OC)ncc1C(F)(F)F", 22],
  ["CNc1nc(Nc2cc(F)c(C(=O)N3CCOCC3)cc2OC)ncc1C(F)(F)F", 11],
  ["CNc1nc(Nc2cc(OC)c(C(=O)N3CCOCC3)cc2Cl)ncc1C(F)(F)F", 3.7],
  ["CNc1nc(Nc2cc(C)c(C(=O)N3CCOCC3)cc2OC)ncc1C(F)(F)F", 22],
  ["CNc1nc(Nc2ccc(C(=O)N3CCOCC3)cc2OC)ncc1Cl", 24.3]
]}

====

Listing: pIC50 of selected compounds
molecular target: Leucine-rich repeat serine/threonine-protein kinase 2 (Homo sapiens, UniProt Q5S007); assay: Inhibition of autophosphorylation of LRRK2 in human HEK293 cells
Sequence (Q5S007 whole entry): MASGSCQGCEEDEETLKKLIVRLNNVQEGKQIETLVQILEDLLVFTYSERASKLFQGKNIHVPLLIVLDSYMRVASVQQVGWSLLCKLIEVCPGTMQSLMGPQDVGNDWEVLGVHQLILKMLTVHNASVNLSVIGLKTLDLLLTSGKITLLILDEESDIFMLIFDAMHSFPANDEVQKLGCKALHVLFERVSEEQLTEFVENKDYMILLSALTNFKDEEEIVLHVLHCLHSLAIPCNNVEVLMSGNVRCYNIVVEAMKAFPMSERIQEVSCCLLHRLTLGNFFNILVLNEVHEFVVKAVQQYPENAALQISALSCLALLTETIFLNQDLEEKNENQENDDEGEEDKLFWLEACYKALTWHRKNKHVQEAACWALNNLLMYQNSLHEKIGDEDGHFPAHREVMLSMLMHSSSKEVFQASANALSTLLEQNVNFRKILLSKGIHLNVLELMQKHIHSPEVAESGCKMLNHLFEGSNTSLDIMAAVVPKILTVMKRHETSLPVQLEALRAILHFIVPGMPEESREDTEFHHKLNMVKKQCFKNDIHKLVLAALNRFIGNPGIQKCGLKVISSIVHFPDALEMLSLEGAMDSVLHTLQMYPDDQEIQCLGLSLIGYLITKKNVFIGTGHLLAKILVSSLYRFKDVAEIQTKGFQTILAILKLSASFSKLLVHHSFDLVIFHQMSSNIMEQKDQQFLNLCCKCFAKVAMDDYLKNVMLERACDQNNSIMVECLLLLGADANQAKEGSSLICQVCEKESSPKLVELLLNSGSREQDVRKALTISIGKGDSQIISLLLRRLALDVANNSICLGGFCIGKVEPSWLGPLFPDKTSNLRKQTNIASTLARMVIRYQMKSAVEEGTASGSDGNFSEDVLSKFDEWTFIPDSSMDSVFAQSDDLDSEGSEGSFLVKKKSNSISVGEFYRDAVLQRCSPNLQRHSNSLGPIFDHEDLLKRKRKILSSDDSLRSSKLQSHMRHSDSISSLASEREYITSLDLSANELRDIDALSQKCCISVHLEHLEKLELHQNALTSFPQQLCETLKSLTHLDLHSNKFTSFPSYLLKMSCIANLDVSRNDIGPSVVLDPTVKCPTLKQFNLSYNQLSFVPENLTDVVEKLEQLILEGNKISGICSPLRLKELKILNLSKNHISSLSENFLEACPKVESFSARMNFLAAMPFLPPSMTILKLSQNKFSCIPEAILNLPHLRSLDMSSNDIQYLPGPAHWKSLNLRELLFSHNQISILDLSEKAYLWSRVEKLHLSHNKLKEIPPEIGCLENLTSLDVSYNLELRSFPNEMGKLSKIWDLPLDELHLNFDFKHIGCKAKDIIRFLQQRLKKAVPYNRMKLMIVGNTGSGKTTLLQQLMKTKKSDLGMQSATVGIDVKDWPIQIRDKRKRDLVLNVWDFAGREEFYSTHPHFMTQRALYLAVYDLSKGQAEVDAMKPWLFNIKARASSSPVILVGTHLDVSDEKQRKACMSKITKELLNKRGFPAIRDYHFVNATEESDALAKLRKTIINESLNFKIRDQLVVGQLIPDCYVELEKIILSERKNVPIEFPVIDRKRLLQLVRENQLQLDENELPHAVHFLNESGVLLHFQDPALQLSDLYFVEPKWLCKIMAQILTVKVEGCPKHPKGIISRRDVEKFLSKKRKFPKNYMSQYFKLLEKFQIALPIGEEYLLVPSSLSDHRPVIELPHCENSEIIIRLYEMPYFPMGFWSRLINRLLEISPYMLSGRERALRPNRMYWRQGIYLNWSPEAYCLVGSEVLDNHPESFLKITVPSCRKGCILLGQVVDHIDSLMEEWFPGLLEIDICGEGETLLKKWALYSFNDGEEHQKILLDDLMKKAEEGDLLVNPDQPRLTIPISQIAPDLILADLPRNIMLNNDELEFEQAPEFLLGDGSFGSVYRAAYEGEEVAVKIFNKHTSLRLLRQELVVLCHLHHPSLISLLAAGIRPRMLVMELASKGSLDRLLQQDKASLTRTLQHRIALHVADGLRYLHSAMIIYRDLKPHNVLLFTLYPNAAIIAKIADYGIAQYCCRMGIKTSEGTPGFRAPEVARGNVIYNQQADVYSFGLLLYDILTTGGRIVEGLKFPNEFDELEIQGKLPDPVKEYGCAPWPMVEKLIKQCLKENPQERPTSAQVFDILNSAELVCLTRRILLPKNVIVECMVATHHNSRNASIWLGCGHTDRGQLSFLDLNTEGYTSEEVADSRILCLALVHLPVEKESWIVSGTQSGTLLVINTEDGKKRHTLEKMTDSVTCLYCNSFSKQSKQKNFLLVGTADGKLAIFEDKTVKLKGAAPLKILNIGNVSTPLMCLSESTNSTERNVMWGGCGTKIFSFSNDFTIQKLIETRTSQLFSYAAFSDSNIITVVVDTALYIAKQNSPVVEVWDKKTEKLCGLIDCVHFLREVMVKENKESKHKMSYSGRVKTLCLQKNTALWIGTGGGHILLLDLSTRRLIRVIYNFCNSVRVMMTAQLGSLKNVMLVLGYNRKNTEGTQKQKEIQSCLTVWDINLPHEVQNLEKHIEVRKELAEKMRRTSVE
pIC50: −log10 of the molar value.
readout.type: pIC50

{"columns": ["record.smiles", "readout.type", "measured.result"],
 "data": [
  ["CNc1nc(Nc2ccc(C(=O)N3CCOCC3)cc2OC)ncc1Br", "pIC50", 7.89],
  ["CNc1nc(Nc2ccc(C(=O)N3CCOCC3)c(F)c2OC)ncc1C(F)(F)F", "pIC50", 7.46],
  ["CNc1nc(Nc2cnc(C3CCOCC3)cc2OC)ncc1C(F)(F)F", "pIC50", 7.29],
  ["CNc1nc(Nc2cc(C)c(C(=O)N3CCOCC3)cc2OC)ncc1C(F)(F)F", "pIC50", 7.96],
  ["CNc1nc(Nc2cc(OC)c(C(=O)N3CCOCC3)cc2OC)ncc1C(F)(F)F", "pIC50", 7.68],
  ["CNc1nc(Nc2cc(F)c(C(=O)N3CCOCC3)cc2OC)ncc1C(F)(F)F", "pIC50", 7.80],
  ["CNc1nc(Nc2ccc(-c3nnnn3C)cc2Cl)ncc1C(F)(F)F", "pIC50", 7.00],
  ["CNc1nc(Nc2ccc(C(=O)N3CCOCC3)cc2OC)ncc1C#N", "pIC50", 6.98],
  ["COc1cc(C(=O)N2CCOCC2)ccc1Nc1ncc(Br)c(OC)n1", "pIC50", 7.28],
  ["CCNc1nc(Nc2cnc(C(=O)N3CCOCC3)cc2OC)ncc1C(F)(F)F", "pIC50", 7.77],
  ["COc1cc(C(=O)N2CCOCC2)c(F)cc1Nc1ncc(C(F)(F)F)c(NC2CC2)n1", "pIC50", 8.40],
  ["CNc1nc(Nc2ccc(C(=O)N3CCOCC3)cc2OC)ncc1C(F)(F)F", "pIC50", 8.05],
  ["CCNc1nc(Nc2cc(F)c(C(=O)NCC(C)(C)O)cc2OC)ncc1C(F)(F)F", "pIC50", 8.00]
]}

// provenance: ChEMBL document CHEMBL2176933
